# target_or_system: AChE (UniProt P23795)
# Sequence (P23795 1-613): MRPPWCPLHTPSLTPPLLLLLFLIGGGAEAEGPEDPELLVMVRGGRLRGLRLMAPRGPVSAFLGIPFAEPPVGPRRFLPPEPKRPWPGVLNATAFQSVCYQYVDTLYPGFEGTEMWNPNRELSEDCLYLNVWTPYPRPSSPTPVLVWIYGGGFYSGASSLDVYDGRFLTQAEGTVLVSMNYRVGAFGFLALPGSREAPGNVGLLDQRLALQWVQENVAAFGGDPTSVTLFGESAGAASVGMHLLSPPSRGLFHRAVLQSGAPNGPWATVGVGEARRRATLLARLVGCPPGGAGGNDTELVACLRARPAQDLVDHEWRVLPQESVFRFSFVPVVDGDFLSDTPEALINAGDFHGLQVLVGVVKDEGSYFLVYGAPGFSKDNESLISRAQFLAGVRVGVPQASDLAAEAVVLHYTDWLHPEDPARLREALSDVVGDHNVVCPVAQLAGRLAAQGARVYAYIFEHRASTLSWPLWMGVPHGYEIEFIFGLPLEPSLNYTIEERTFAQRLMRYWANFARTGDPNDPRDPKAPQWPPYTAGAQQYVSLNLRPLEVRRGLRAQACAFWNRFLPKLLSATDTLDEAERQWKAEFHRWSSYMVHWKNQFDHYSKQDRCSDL
# Type: biochemical, human or bovine erythrocytes
# experimental_conditions: Table 2; 120 min incubation; read-out: IC50 AChE 120′
The molecules listed here are annotated with their IC50.

{"molecule": "COC(=O)CCc1c[nH]c2cc(OC(=O)N(C)c3ccc(OC)cc3)ccc12 [compound 683]", "target_or_system": "AChE (UniProt P23795)", "result_qualifier": ">", "IC50 (µM)": 800}
{"molecule": "CCN(C)C(=O)Oc1cccc2c1c(CCC(=O)OC)cn2C [AN-629]", "target_or_system": "AChE (UniProt P23795)", "result_qualifier": "=", "IC50 (µM)": 180}
{"molecule": "CN(C)C(=O)Oc1cccc2ccn(C)c12 [AN-621]", "target_or_system": "AChE (UniProt P23795)", "result_qualifier": "=", "IC50 (µM)": 0.3}
{"molecule": "CCN(C)C(=O)Oc1ccc2c(c1)C(CCC(=O)OC)CN2 (stereo not drawn) [AN-669]", "target_or_system": "AChE (UniProt P23795)", "result_qualifier": "=", "IC50 (µM)": 660}
{"molecule": "CN(C)C(=O)Oc1cccc2c1CCN2C [AN-619]", "target_or_system": "AChE (UniProt P23795)", "result_qualifier": "=", "IC50 (µM)": 3.5}
{"molecule": "CCCCN(C)C(=O)Oc1ccc2c(CCC(=O)OC)c[nH]c2c1 [compound 676]", "target_or_system": "AChE (UniProt P23795)", "result_qualifier": "=", "IC50 (µM)": 33}

----------
Reported Emax values for the following compounds.
# System: TNF-α, RAW 264.7 cells
# test: TNF-α reduction in LPS-stimulated RAW 264.7 macrophages
# Format: cell-based, mouse
# experimental_conditions: Mus musculus, RAW264.7, 6 h, read-out: Reduction in TNF-α levels, RAW Macrophages % peak reduction
Structures can show the parent of a compound that is named as a salt.
readout_label: Emax (%)

{"compound": "CCN(C)C(=O)Oc1cccc2c1CCN2CCC(=O)OC.Cl [AN-1243, Hydrochloride]", "target_or_system": "TNF-α, RAW 264.7 cells", "readout_label": "Emax", "readout_value": 20.3}
{"compound": "CCN(C)C(=O)Oc1cccc2c1CCN2 [AN-854, hydrochloride]", "target_or_system": "TNF-α, RAW 264.7 cells", "readout_label": "Emax", "readout_value": 41.1}
{"compound": "CCN(C)C(=O)Oc1ccc2c(c1)NCC2CCC(=O)O (stereo not drawn) [AN-681, hydrochloride]", "target_or_system": "TNF-α, RAW 264.7 cells", "readout_label": "Emax", "readout_value": 29.2}
{"compound": "CCN(C)C(=O)Oc1cccc2c1C(CCN)CN2 (stereo not drawn) [AN-890, dihydrochloride]", "target_or_system": "TNF-α, RAW 264.7 cells", "readout_label": "Emax", "readout_value": 36.6}
{"compound": "CCN(C)C(=O)Oc1cccc2c1C(CCC(=O)OC)CN2 (stereo not drawn) [AN-827, hydrochloride]", "target_or_system": "TNF-α, RAW 264.7 cells", "readout_label": "Emax", "readout_value": 30}
{"compound": "CCN(C)C(=O)Oc1ccc2c(c1)NCC2CCC(=O)OC (stereo not drawn) [AN-680, hydrochloride]", "target_or_system": "TNF-α, RAW 264.7 cells", "readout_label": "Emax", "readout_value": 34.5}
